# subjectOfTest: human JAK2 (a.a. 828-1132) (Homo sapiens, UniProt O60674)
# Construct: JAK2 (a.a. 828-1132); His tag (N); made in house; host or cells: insect cells (baculovirus)
# Sequence (O60674 828-1132): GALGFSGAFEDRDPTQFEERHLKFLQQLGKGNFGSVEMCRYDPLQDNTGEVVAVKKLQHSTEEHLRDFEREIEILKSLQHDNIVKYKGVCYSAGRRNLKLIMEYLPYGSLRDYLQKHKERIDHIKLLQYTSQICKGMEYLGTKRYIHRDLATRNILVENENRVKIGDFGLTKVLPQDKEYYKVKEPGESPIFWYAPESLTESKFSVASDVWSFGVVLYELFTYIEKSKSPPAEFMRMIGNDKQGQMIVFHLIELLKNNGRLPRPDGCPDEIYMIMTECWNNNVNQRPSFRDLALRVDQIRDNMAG
# procedureSummary: In vitro JAK Kinase Assay (HTRF), JAK2 (for JAK2/JAK1 ratio)
# Assay type: biochemical
# condition: ratio of IC50s, 1 mM ATP
# Method: The catalytic activity of JAK1 and JAK2 was assayed by measuring the phosphorylation of a biotinylated peptide. The phosphorylated peptide was detected by homogenous time resolved fluorescence (HTRF). […] Binding to the Europium labeled antibody took place for 40 minutes and HTRF signal was measured on a Fusion plate reader (Perkin Elmer, Boston, Mass.).
Each record here notes measured JAK2/JAK1.

- molecule: "N#CCC1(n2cc(-c3ncnc4[nH]ccc34)cn2)CN(C2CCN(C(=O)Nc3ccc(F)cc3C(F)(F)F)CC2)C1 [Compound 8]"
  JAK2/JAK1: ">10"
- molecule: "N#CC[C@]1(n2cc(-c3ncnc4[nH]ccc34)cn2)C[C@H](N2CCC(Oc3cc(CN4CC(O)C4)cc(C(F)(F)F)n3)CC2)C1 [Compound 11]"
  JAK2/JAK1: ">10"
- molecule: "C[C@H](NC(=O)c1cc(F)c(N2CC(CC#N)(n3cc(-c4ncnc5[nH]ccc45)cn3)C2)cc1F)C(F)(F)F [Compound 16]"
  JAK2/JAK1: ">10"

Ref: patent US20150065447A1
